tested on: Escherichia coli ATCC 25922; assay: Inhibition of DHPS in Escherichia coli ATCC 25922 assessed as inhibition of bacterial growth incubated for 24 hrs in presence of folate dependent metabolite, methionine by microbroth dilution method
Calls of active or inactive are those of the source. The rule behind the calls is not given here.
attribute-measured: inhibition

Below are worked cases with known answers.
{"smiles": "CN/C(SC)=C(/C#N)C(=O)Nc1ccc(S(=O)(=O)Nc2onc(C)c2C)cc1", "observed-measurement": "inactive"}
{"smiles": "CC(=O)OC[C@H]1O[C@@H](S/C(Nc2ccccc2)=C(\\C#N)C(=O)Nc2ccc(S(=O)(=O)Nc3onc(C)c3C)cc2)[C@H](OC(C)=O)[C@@H](OC(C)=O)[C@@H]1OC(C)=O", "observed-measurement": "inactive"}
{"smiles": "CCS/C(Nc1ccccc1)=C(\\C#N)C(=O)Nc1ccc(S(=O)(=O)Nc2onc(C)c2C)cc1", "observed-measurement": "inactive"}
{"smiles": "Cc1noc(NS(=O)(=O)c2ccc(NC(=O)/C(C#N)=C(/S)NC34CC5CC(CC(C5)C3)C4)cc2)c1C", "observed-measurement": "inactive"}
{"smiles": "CN/C(S[C@@H]1O[C@H](COC(C)=O)[C@@H](OC(C)=O)[C@H](OC(C)=O)[C@H]1OC(C)=O)=C(/C#N)C(=O)Nc1ccc(S(=O)(=O)Nc2onc(C)c2C)cc1", "observed-measurement": "inactive"}
{"smiles": "CC(=O)OC[C@H]1O[C@@H](S/C(Nc2ccccc2)=C(\\C#N)C(=O)Nc2ccc(S(=O)(=O)Nc3onc(C)c3C)cc2)[C@H](OC(C)=O)[C@@H](OC(C)=O)[C@H]1OC(C)=O", "observed-measurement": "inactive"}

Inquiry: Bench note: what inhibition did `C=CCN/C(SC)=C(/C#N)C(=O)Nc1ccc(S(=O)(=O)Nc2onc(C)c2C)cc1` show?
Reply text: inactive

---

system: Aspergillus fumigatus; assay: Inhibition of DHPS in Aspergillus fumigatus assessed as antifungal activity by measuring inhibition zone at 5 mg/mL incubated for 48 hrs by disk diffusion method
Activity calls are given as the source filed them. No cut-off for these calls is given here.
attribute-measured: inhibition zone (IZ)

Below are worked cases with known answers.
{"smiles": "C=CCN/C(S)=C(/C#N)C(=O)Nc1ccc(S(=O)(=O)Nc2onc(C)c2C)cc1", "attribute-measured": "inhibition zone (IZ)", "observed-measurement": "22.3 mm"}
{"smiles": "Cc1noc(NS(=O)(=O)c2ccc(N)cc2)c1C", "attribute-measured": "inhibition zone (IZ)", "observed-measurement": "15.1 mm"}
{"smiles": "Cc1noc(NS(=O)(=O)c2ccc(NC(=O)c3c(N)n[nH]c3Nc3ccccc3)cc2)c1C", "attribute-measured": "inhibition zone (IZ)", "observed-measurement": "inactive"}
{"smiles": "CCS/C(Nc1ccccc1)=C(\\C#N)C(=O)Nc1ccc(S(=O)(=O)Nc2onc(C)c2C)cc1", "attribute-measured": "inhibition zone (IZ)", "observed-measurement": "inactive"}
{"smiles": "CCS/C(NC12CC3CC(CC(C3)C1)C2)=C(\\C#N)C(=O)Nc1ccc(S(=O)(=O)Nc2onc(C)c2C)cc1", "attribute-measured": "inhibition zone (IZ)", "observed-measurement": "inactive"}
{"smiles": "CC(=O)OC[C@H]1O[C@@H](S/C(Nc2ccccc2)=C(\\C#N)C(=O)Nc2ccc(S(=O)(=O)Nc3onc(C)c3C)cc2)[C@H](OC(C)=O)[C@@H](OC(C)=O)[C@@H]1OC(C)=O", "attribute-measured": "inhibition zone (IZ)", "observed-measurement": "inactive"}

Inquiry: Bench note: what inhibition zone (IZ) did `CCN/C(S[C@@H]1O[C@H](COC(C)=O)[C@H](OC(C)=O)[C@H](OC(C)=O)[C@H]1OC(C)=O)=C(/C#N)C(=O)Nc1ccc(S(=O)(=O)Nc2onc(C)c2C)cc1` show?
Reply text: 17.2 mm

Inquiry: Similarly, `Cc1noc(NS(=O)(=O)c2ccc(NC(=O)/C(C#N)=C(/S)NC34CC5CC(CC(C5)C3)C4)cc2)c1C` ?
Reply text: 14.9 mm
